tested-target: recombinant rat PIM-3 (Rattus norvegicus)
assay-remarks: PIM-3 Assay (as Example A)
settings: averaged IC50; 30 μM ATP, 3.75 μM PIM2tide, 0.5 nM PIM-3
Structures can show the parent of a compound that is named as a salt.
In this section, each of the compounds is paired with its reported IC50.

compound	IC50, nM
COCc1cccc2ccc(-c3nnc4ccc([C@@H](N5CC[C@H](N)C5)C(F)(F)F)cn34)nc12 [Example 185, dihydrochloride]	1
N[C@H]1CCN([C@H](c2ccc3nnc(-c4ccc5cccc(C6CC6)c5n4)n3c2)C(F)(F)F)C1 [Example 39, dihydrochloride]	1
CC(C)Oc1cccc2ccc(-c3nnc4ccc([C@H](N5CC[C@@H](O)C5)C(F)(F)F)cn34)nc12	3.1
N[C@H]1CCN([C@H](c2ccc3nnc(-c4ccc5ccc(C6COC6)cc5n4)n3c2)C(F)(F)F)C1	2.8

* * *

tested-target: recombinant rat PIM-3 (Rattus norvegicus, UniProt O70444)
assay-remarks: PIM-3 Assay (as Example A)
settings: averaged IC50; 30 μM ATP, 3.75 μM PIM2tide, 0.5 nM PIM-3
Structures can show the parent of a compound that is named as a salt.
The following molecules are shown together with reported IC50 values.
measurement-label: IC50 (nM)

molecule	readout-relation	measured
Cc1cccc2ccc(-c3nnc4ccc([C@@H](N5CC[C@H](N)C5)C(F)(F)F)cn34)nc12 [Example 183, dihydrochloride]	=	1.2
CC(C)Oc1cccc2ccc(-c3nnc4ccc([C@H](N5CC[C@@](C)(N)C5)C(F)(F)F)cn34)nc12 [Example 90, dihydrochloride]	=	23
COc1cccc2ccc(-c3nnc4ccc(C(N5CCCC5)C(F)(F)F)cn34)nc12 (stereo not drawn)	>	100

* * *

tested-target: PIM-1 (Homo sapiens)
Sequence (P11309 whole entry, species assumed): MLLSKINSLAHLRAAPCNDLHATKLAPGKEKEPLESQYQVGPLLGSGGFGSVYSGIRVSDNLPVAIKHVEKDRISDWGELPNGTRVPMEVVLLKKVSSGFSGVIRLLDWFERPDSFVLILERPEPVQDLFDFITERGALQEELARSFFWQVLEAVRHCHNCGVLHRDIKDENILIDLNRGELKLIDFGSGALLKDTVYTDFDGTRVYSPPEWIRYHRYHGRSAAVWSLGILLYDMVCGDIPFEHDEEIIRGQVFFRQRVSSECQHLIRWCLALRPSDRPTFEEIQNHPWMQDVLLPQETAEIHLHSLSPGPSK
pIC50: −log10 of the molar value. Counter-ions that a name gives are not always drawn.
The following molecules are shown together with reported pIC50 values.
measurement-label: pIC50

molecule	tested-target	measured
C[C@@]1(N)CCN([C@@H](c2ccc3nnc(-c4ccc5cccc(C6CC6)c5n4)n3c2)C(F)(F)F)C1 [Example 94, dihydrochloride]	PIM-1 (Homo sapiens)	9.54
CCOc1cc2nc(-c3nnc4ccc([C@@H](N5CC[C@@H](CN)C5)C(F)(F)F)cn34)ccc2cc1F [Example 279, hydrochloride]	PIM-1 (Homo sapiens)	9.02
CC(C)NC(=O)c1ccc2ccc(-c3nnc4ccc([C@@H](N5CC[C@H](N)C5)C(F)(F)F)cn34)nc2c1 [Example 34, dihydrochloride]	PIM-1 (Homo sapiens)	9.70

* * *

# maps each entry to its IC50
tested-target: GST-tagged recombinant full-length human Pim-2 (Homo sapiens, UniProt Q9P1W9)
Construct: GST-tagged recombinant full-length human Pim-2; GST
Sequence (Q9P1W9 whole entry): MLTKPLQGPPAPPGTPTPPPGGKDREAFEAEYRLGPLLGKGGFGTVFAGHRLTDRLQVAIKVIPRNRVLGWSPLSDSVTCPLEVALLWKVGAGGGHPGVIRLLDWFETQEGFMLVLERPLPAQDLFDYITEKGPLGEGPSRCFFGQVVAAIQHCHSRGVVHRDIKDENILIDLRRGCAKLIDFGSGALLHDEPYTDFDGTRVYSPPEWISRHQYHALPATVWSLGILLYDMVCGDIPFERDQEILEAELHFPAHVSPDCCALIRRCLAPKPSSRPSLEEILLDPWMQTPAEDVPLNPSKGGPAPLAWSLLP
assay-remarks: PIM-2 Assay (as Example A)
settings: averaged IC50; 4 μM ATP, 1.0 μM PIM2tide, 1.5 nM Pim-2
Counter-ions that a name gives are not always drawn.

compound	IC50
CC(C)Oc1cc(F)cc2ccc(-c3nnc4ccc([C@H](N5CC[C@](C)(N)C5)C(F)(F)F)cn34)nc12 [Example 216, dihydrochloride]	0.056 µM
CC(C)NC(=O)c1ccc2ccc(-c3nnc4ccc([C@@H](N5CC[C@@H](N)C5)C(F)(F)F)cn34)nc2c1 [Example 49, dihydrochloride]	0.068 µM
CC(C)Oc1cc(F)cc2ccc(-c3nnc4ccc([C@@H](N5C[C@@H](N)[C@@H](O)C5)C(F)(F)F)cn34)nc12 [Example 132, dihydrochloride]	0.538 µM
COc1ccc2ccc(-c3nnc4ccc([C@@H](N5CC[C@H](N)C5)C(F)(F)F)cn34)nc2c1C1CC1 [Example 143, dihydrochloride]	0.038 µM
CC(C)Oc1cc(F)cc2ccc(-c3nnc4ccc([C@@H](N5CC[C@H](NCCO)C5)C(F)(F)F)cn34)nc12 [Example 102, dihydrochloride]	0.03 µM
CC(C)(O)c1cccc2ccc(-c3nnc4ccc([C@@H](N5CC[C@H](N)C5)C(F)(F)F)cn34)nc12	0.139 µM
